measured-on: PHF6 tau sequence (Homo sapiens, UniProt P10636)
assay-remarks: Inhibition of PHF6 aggregation (ThT fluorescence)

{"columns": ["smi", "IC50 (µM)"],
 "data": [
  ["O=C1c2ccccc2C(=O)c2c(NCCc3ccccc3)cccc21", 1.78],
  ["O=C1C(Cl)=C(NCCc2ccccc2)C(=O)c2ccccc21", 4.96]
]}

* * *

assay-remarks: in vitro
condition-details: PAMPA, pH 7.4

{"columns": ["compound", "measurement-units", "Papp"],
 "data": [
  ["O=C1Nc2ccc(Cl)cc2C(c2ccccc2)=NC1O (stereo not drawn)", "×10⁻⁶ cm/s", 9.1],
  ["CN1C(C(=O)Nc2ccccn2)=C(O)c2ccccc2S1(=O)=O", "×10⁻⁶ cm/s", 1.6],
  ["Cc1nnc2n1-c1ccc(Cl)cc1C(c1ccccc1)=NC2", "×10⁻⁶ cm/s", 4.8]
]}

* * *

measured-on: MAO B (Homo sapiens)
Construct: purchased Sigma-Aldrich
Sequence (P27338 whole entry): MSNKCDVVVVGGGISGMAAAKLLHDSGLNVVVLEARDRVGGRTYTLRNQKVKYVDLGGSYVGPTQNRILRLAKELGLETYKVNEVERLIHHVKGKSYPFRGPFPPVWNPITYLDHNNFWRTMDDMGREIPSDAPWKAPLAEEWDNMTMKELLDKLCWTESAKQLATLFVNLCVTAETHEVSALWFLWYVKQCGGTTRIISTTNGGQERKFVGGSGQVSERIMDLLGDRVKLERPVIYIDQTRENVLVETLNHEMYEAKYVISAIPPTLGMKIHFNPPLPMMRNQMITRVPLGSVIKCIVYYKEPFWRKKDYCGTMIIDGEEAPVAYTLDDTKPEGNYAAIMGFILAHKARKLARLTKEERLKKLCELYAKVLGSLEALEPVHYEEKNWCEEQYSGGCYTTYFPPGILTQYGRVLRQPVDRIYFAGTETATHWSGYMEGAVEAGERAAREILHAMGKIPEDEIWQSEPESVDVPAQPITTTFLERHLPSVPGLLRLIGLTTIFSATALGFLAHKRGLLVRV
assay-remarks: MAO B inhibition (fluorimetric kynuramine assay, inhibition kinetics)
Format: biochemical
condition-details: at 10 μM; mean ± SEM, n = 3

{"columns": ["molecule", "inhibition at 10 µM (%)"],
 "data": [
  ["O=C1c2ccccc2C(=O)c2c(NCCc3c[nH]c4ccccc34)cccc21 [Compound 13]", 42],
  ["O=C1C(Cl)=C(NCCn2cnc3ccccc32)C(=O)c2ccccc21 [Compound 6]", 24],
  ["O=C1C(Cl)=C(Nc2ccccc2)C(=O)c2ccccc21 [Compound 1]", 22],
  ["O=C1c2ccccc2C(=O)c2c(NCc3ccccc3)cccc21 [Compound 10, 1-(Benzylamino)-9,10-anthraquinone]", 34],
  ["O=C1C(Cl)=C(NC(Cc2c[nH]c3ccccc23)C(=O)O)C(=O)c2ccccc21 (centres unmarked) [Compound 9]", 52]
]}

* * *

measured-on: Aβ40 (Homo sapiens, UniProt P05067)
Construct: samples of Aβ40 (30 μM) were coincubated for 2 h at 25 °C with test molecules; purchased EzBiolab, Carmel, IN, USA
Sequence (P05067 672-711 limits assumed): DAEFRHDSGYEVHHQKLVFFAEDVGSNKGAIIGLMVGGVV
assay-remarks: Inhibition of self-induced Aβ40 aggregation (ThT fluorescence, HFIP)
Type: biochemical
condition-details: Aβ40 30 μM, 2 h at 25 °C, PBS 2% HFIP; mean ± SEM, n = 3; read-out: Aβ40 aggr IC50
pIC50: −log10 of the molar value.
Would you please tag the item T when its pIC50 is 5 or above, and F when it is below?

{"columns": ["molecule", "measured-on", "label"],
 "data": [
  ["O=C1C(Cl)=C(NC(Cc2c[nH]c3ccccc23)C(=O)O)C(=O)c2ccccc21 (centres unmarked)", "Aβ40 (Homo sapiens, UniProt P05067)", "F"],
  ["O=C1C(Cl)=C(NCc2ccccc2)C(=O)c2ccccc21", "Aβ40 (Homo sapiens, UniProt P05067)", "T"],
  ["O=C1C(Cl)=C(NCCc2ccccc2)C(=O)c2ccccc21", "Aβ40 (Homo sapiens, UniProt P05067)", "T"],
  ["O=C1C(Cl)=C(NCCn2cnc3ccccc32)C(=O)c2ccccc21", "Aβ40 (Homo sapiens, UniProt P05067)", "F"],
  ["O=C1c2ccccc2C(=O)c2c(NCCc3ccccc3)cccc21", "Aβ40 (Homo sapiens, UniProt P05067)", "T"],
  ["O=C1C(Cl)=C(NCCc2c[nH]c3ccccc23)C(=O)c2ccccc21", "Aβ40 (Homo sapiens, UniProt P05067)", "T"],
  ["O=C1c2ccccc2C(=O)c2c(NCCCc3ccccc3)cccc21", "Aβ40 (Homo sapiens, UniProt P05067)", "T"],
  ["O=C1C(Cl)=C(NC(Cc2ccccc2)C(=O)O)C(=O)c2ccccc21 (centres unmarked)", "Aβ40 (Homo sapiens, UniProt P05067)", "F"]
]}
